- measurementTarget: AXL (human catalytic domain) (Homo sapiens, UniProt P30530)
- Construct: purchased Upstate Ltd. 14-512
- Sequence (P30530 473-894): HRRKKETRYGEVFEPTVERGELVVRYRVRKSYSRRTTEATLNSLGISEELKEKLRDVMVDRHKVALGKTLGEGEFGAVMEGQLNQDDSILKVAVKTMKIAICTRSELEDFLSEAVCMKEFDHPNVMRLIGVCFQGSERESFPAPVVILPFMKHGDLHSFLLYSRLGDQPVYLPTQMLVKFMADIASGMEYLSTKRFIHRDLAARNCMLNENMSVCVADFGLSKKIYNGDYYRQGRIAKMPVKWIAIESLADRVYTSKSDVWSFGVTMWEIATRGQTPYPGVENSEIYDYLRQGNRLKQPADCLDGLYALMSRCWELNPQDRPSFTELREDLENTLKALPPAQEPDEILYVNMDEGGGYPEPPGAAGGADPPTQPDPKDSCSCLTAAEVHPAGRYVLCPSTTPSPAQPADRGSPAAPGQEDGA
- protocolSummary: AXL (human catalytic domain) Enzyme Activity Assay (IMAP fluorescence polarisation)
- Format: biochemical
- setupConditions: further data set (WW-001 through WW-169, XX-001 through XX-469, YY-001 through YY-016, ZZ-001 through ZZ-003); 150 μM ATP
reportedProperty: IC50

// solved cases for IC50 follow
[
  {
    "compound": "c1ccc2sc(-c3cccc4nc(Nc5ccc(OCCN6CCCC6)cc5)nn34)cc2c1 [XX-294]",
    "measurementTarget": "AXL (human catalytic domain) (Homo sapiens, UniProt P30530)",
    "IC50": "100 to 1000 nM"
  },
  {
    "compound": "COc1ccc(-c2cccc3nc(Nc4ccc(OCCN(C)Cc5ccc(N)cc5)cc4)nn23)cc1 [XX-067]",
    "measurementTarget": "AXL (human catalytic domain) (Homo sapiens, UniProt P30530)",
    "IC50": "≤ 100 nM"
  },
  {
    "compound": "COc1ccc(-c2cccc3nc(Nc4ccc(OCCNCc5ccc(N)cc5)cc4)nn23)cc1 [XX-034]",
    "measurementTarget": "AXL (human catalytic domain) (Homo sapiens, UniProt P30530)",
    "IC50": "100 to 1000 nM"
  },
  {
    "compound": "FC(F)(F)Oc1cccc(Cn2cc(-c3cccc4nc(Nc5ccc(OCCN6CCCC6)cc5)nn34)cn2)c1 [XX-366]",
    "measurementTarget": "AXL (human catalytic domain) (Homo sapiens, UniProt P30530)",
    "IC50": "100 to 1000 nM"
  }
]

As a next step, examine the compound that follows.
The reported IC50 of the compound CNc1ccc(-c2cccc3nc(NC(=O)C4CC4)nn23)cc1 [WW-120] was 1000 to 10000 nM
